# Tested on: T-47D breast
# procedure-details: NCI tumour cell line growth inhibition, 48 h; in the data active = GI50 below about 0.43 µM; inactive = the rest
Result category, one only: active, inactive

What outcome does the record of this test show for `CCn1c(SC)nnc1-c1cc2c([nH]c3ccccc32)c(-c2cccc(O)c2)n1` ?
inactive

What outcome does the record of this test show for COC1=C(C)C(=O)C2=C(C1=O)C1C3CC4=C(C(=O)C(OC)=C(C)C4=O)C(CNC(=O)C(C)=O)N3C(C#N)C(C2)N1C (stereo not drawn) ?
active

What outcome does the record of this test show for Cn1c(=O)c(Oc2ccc(F)cc2F)cc2cnc(NC3CCC(O)CC3)nc21 (stereo not drawn) ?
inactive

What outcome does the record of this test show for `O=C(COC(=O)[C@H](C[Se][Se]C[C@H](NC(=O)c1ccc(Br)cc1F)C(=O)OCC(=O)c1ccc(F)cc1)NC(=O)c1ccc(Br)cc1F)c1ccc(F)cc1` ?
inactive

What outcome does the record of this test show for `c1csc(-c2[nH]nc3c2CCc2ccccc2-3)c1` ?
active

What outcome does the record of this test show for `COc1cc(-c2nn(-c3cccc(NC(=O)c4cccc(C(F)(F)F)c4)c3)cc2-c2ccncc2)ccc1Cl` ?
inactive

What outcome does the record of this test show for `CC(=O)Nc1ccc(C(=O)COc2cccc(/C=C3\CCc4ccccc4C3=O)c2)cc1` ?
inactive

What outcome does the record of this test show for CC(=O)OC1CCC2(C)C(=CCC3C4CC(CN5CC5)C(=O)C4(C)CCC32)C1 (stereo not drawn) ?
inactive

Cited source for all entries: PubChem BioAssay (NCI)
